- method: yeast display, Sf9 membrane polyspecificity reagent, FACS + sequencing; frameworks hold sequencing errors

{"columns": ["constructSequence", "polyreactivity (PSR sort gate)"],
 "data": [
  ["QVQLVESGGGLVQAGGSLRLSCAASGLIFIAYAMGWYRQAPGKDRELVAAISSGGSTYADSVKRRFTISRDNAKNTVYLQMNSLKPEETAVYYCNADSWSGTTYFNFNYWGQGTQVTVSS", "low polyreactivity"],
  ["QVQLVESAGGLVQAGGSLRLSCAASGRIYGIYAMGWYRQAPGKERELVASITDGTITNYADSVKGRFTISRDNAKNTVYLQKNSLKPEDTAVYYCAAGTQAHAYVVRPIEMDYWGQGTQVTVSS", "low polyreactivity"],
  ["QVQLVESGGGLVQAGGSLRLSCAASGSIFSDNAMGWYRQAPGKERELVAAITWSGGSTYYADSVKGRFTISRDNAKNTVYLQMNSLKPEDTAVYYCAADGDYYWYYHGTYDYWGQGTQVTVSS", "low polyreactivity"]
]}

Each recorded value in this set is attributed to the nanobody polyreactivity screen of Harvey et al. (2022).
